Where do these numbers come from? They come from patent US12275732B2.

- Experiment: A2B permeability (Papp) in MDCK-MDR1 cell monolayers
- Format: in vitro ADME
- Recorded conditions: dog, MDCK-MDR1 monolayer, apical to basolateral (A-B), 10 μM test compound, HBSS pH 7.4, duplicate
Measurement label: Papp A→B at 60 min, 10 μM (nm/s)
Write the number in nm/s without appending the unit.

Specify Papp A→B at 60 min, 10 μM for CCn1cc(C(=O)N2CC3CCC(C2)O3)c(=O)c2cc(OC3Cc4ccccc4C3)nnc21 [Example 63] and stop.
15.5

Report Papp A→B at 60 min, 10 μM for CCn1cc(C(=O)N2CCOC(C)(C)C2)c(=O)c2cc(OC3Cc4ccccc4C3)cnc21 [Example 4]
12.6

Note down Papp A→B at 60 min, 10 μM recorded for CCn1cc(C(=O)N2[C@H](C)COC[C@H]2C)c(=O)c2cc(OC3Cc4ccccc4C3)cnc21 [Example 11]
38.3
